Just for reference, PubChem BioAssay (NCI) is where these values come from.

system: MDA-MB-231 breast; test: NCI-60 one-dose screen, 48 h; conditions: 10 µM unless noted
This is part of a sample that, as a whole, favours compounds with a hit. Of some 83,000 tested, about 20% had one in any assay. The source made the active and inactive calls. How the source made its calls: active means growth percent below 10; inactive means the rest.
Assign a class; possible classes are active, inactive

Cc1ccccc1-c1cc(-c2ccc(Br)s2)[nH]c(=O)c1C#N :: inactive
Clc1nc(-c2ccccn2)nc2sc3c(c12)CCCCCC3 :: inactive
COc1cc(Cn2cc(F)c(=O)[nH]c2=O)cc(OC)c1 :: inactive

## Task // return assay outcome for c1ccc2c(c1)oc1cc3c(cc12)nnc1cccn13
## Result inactive

## Task // return assay outcome for O=C1/C(=C/c2ccc(Cl)cc2)CN(Cc2cn(CCCNc3ccnc4cc(Cl)ccc34)nn2)C/C1=C\c1ccc(Cl)cc1
## Result active

## Task // return assay outcome for C(=C\c1ccccc1)/CN1CCN(C(c2ccccc2)c2ccccc2)CC1
## Result inactive

---

test system: SF-295 CNS; experiment: NCI-60 one-dose screen, 48 h (100 = growth as untreated, 0 = no growth, -100 = all killed); details: 10 µM unless noted
The panel holds about 83,000 compounds, 20% with a hit somewhere; the sample as a whole holds those more often.
measuredProperty: growth (%)
Give bare numbers, in %.

Worked cases, answers included:
Cc1cc(=O)oc2c1ccc1oc(C(=O)c3ccccc3)c(C)c12 :: 55.8
COc1cc(CNCCCN2C(=O)c3ccc4c5c(ccc(c35)C2=O)C(=O)N(CCCNCc2cc(OC)c(OC)c(OC)c2)C4=O)cc(OC)c1OC :: -50.3

## Task Entry COc1ccc(S(=O)(=O)c2ccc(C(N)=O)cc2)cc1NC(=O)c1[nH]c(C)c2c1CCCCC2=O has what growth?
## Result 49.9

---

Record form. Attribute: growth. Fill in for each entry.
test system: RPMI-8226 leukemia; assay: NCI-60 one-dose screen, 48 h (100 = growth as untreated, 0 = no growth, -100 = all killed); settings: 10 µM
The panel holds about 83,000 compounds, 20% with a hit somewhere; the sample as a whole holds those more often. Activity calls are given as the source filed them. How the source made its calls: active means growth percent below 10; inactive means the rest.

Cc1ccc2nc(NC(=O)CSC(=S)N3CCN(C)CC3)sc2c1 :: 106% (inactive)
Cc1ccc(S(=O)(=O)N(c2ccc(Cl)cc2)c2ccc(Br)cc2C(=O)O)cc1 :: 108% (inactive)
NC(=O)c1nc2c([nH]c1=O)CCCC2 :: 96.5% (inactive)

For the 4 compounds below, give their growth values.
1. CC1(C)CC(=O)C2=C(C1)Nc1cc3c(cc1C2c1ccc(F)cc1)OCO3 (configuration not stated)
2. CCCN(CCC)c1ccc(/C=C/c2ccc3cc(OCC)ccc3n2)cc1
3. Fc1ccccc1Nc1ccc2nnc(-c3ccncc3)n2n1
4. CCCCCCCCCCCCCCCC[N+]1(C)CCOCC1

## Result
1: 92.1% (inactive); 2: 35.6% (inactive); 3: 95.4% (inactive); 4: -33.9% (active)

For the 3 compounds below, give their growth values.
1. O=C(c1cnn2c1NC(c1ccc(F)cc1)C2)N1CCCCC1 (configuration not stated)
2. COc1c(O)c2c3c(c1OC)-c1ccccc1CC3N(S(=O)(=O)c1ccc(C)cc1)CC2 (configuration not stated)
3. O=C(COc1cccc(/C=C2\COc3ccccc3C2=O)c1)c1ccccc1

## Result
1: 103% (inactive); 2: 90.9% (inactive); 3: -51.1% (active)

---

test system: NCI/ADR-RES ovarian; test: NCI-60 one-dose screen, 48 h (100 = growth as untreated, 0 = no growth, -100 = all killed); conditions: 10 µM unless noted
Compounds without any hit were thinned out: in the full panel of roughly 83,000, 20% have a hit.
Record form. Attribute: growth. Fill in for each entry.
Answers are plain numbers, in %.

Worked cases, answers included:
CCOC(=O)c1c(-c2cc(OC)c(OC)c(OC)c2)csc1N :: 83.8
CC(=O)OC[C@H](O)[C@@]1(O)CC[C@H]2[C@@H]3CCC4=CC(=O)CC[C@]4(C)[C@H]3[C@@H](O)C[C@@]21C :: 102
O=c1nc(NO)[nH]c(=O)n1Cc1ccc(F)cc1 :: 107
O=C1/C(=C/c2ccc(Oc3ccccc3)cc2)N=C(c2ccccc2)N1CCc1cccs1 :: 83.9
O=C(Nc1ccc(Cl)c(Cl)c1)OCn1ncc2ccc([N+](=O)[O-])cc21 :: 84.1

## Task Entry C(=C\c1ccccc1)/CN1CCN(C(c2ccccc2)c2ccccc2)CC1 has what growth?
## Result 81.7

---

test system: HOP-62 NSCLC; test: NCI-60 one-dose screen, 48 h (100 = growth as untreated, 0 = no growth, -100 = all killed); conditions: 10 µM unless noted
This is part of a sample that, as a whole, favours compounds with a hit. Of some 83,000 tested, about 20% had one in any assay.
Sorting guide: entries reporting growth beneath 90% go in the satisfied pile, the rest go in the not satisfied pile.

C=C(C)COC(=O)c1ccccc1C(=O)OCC1(C)CO1 (centres undefined) :: not satisfied
COc1ccc(C2CC(c3cc(OC)c(OC)c(OC)c3)=NN2c2ccc(S(N)(=O)=O)cc2)cc1 (centres undefined) :: satisfied
Cc1ccc(S(=O)(=O)N(c2ccc(Cl)cc2)c2ccc(Br)cc2C(=O)O)cc1 :: not satisfied
Cc1ccc(C2SCC(=O)N2NC(=O)c2[nH]c3ccc(F)cc3c2-c2ccccc2)cc1 (centres undefined) :: not satisfied
CCCCC(=O)N/N=C/c1cc(I)cc(I)c1O :: satisfied

## Task Confirm or reject: growth of CCCN(CCC)c1ccc(/C=C/c2ccc3cc(OCC)ccc3n2)cc1 lies strictly below 90%
## Result not satisfied

## Task Confirm or reject: growth of NC(=O)c1cc(I)ccc1NC(=O)COc1ccccc1 lies strictly below 90%
## Result satisfied

## Task Confirm or reject: growth of CC(C)(C)[Si](C)(C)OC1[C@@H](O[Si](C)(C)C(C)(C)C)[C@@H](CNC(=O)NC(=O)C(F)(F)F)O[C@H]1n1cnc2c(NC(=O)Nc3ccccc3)ncnc21 (some centres undefined) lies strictly below 90%
## Result not satisfied

---

tested on: HOP-62 NSCLC; test: NCI-60 one-dose screen, 48 h (100 = growth as untreated, 0 = no growth, -100 = all killed); settings: 10 µM unless noted
This is part of a sample that, as a whole, favours compounds with a hit. Of some 83,000 tested, about 20% had one in any assay.
Record form. Attribute: growth. Fill in for each entry.
Numbers only, in %.

Worked cases, answers included:
FC(F)(F)c1cc(CNc2ncc(Br)c(Cl)n2)cc(C(F)(F)F)c1 :: 90.2
COc1ccc(-c2nc3sc(C)cn3c2/C=C/C(=O)c2cc(OC)c(OC)c(OC)c2)cc1 :: 90.1

Next molecule, growth to be filled in.
## Task Test system HOP-62 NSCLC; read-out growth; what value for CCCCC(CCCC)(S(=O)(=O)CC)S(=O)(=O)CC ?
## Result 92.5

---

tested on: 786-0 renal; experiment: NCI-60 one-dose screen, 48 h; conditions: 10 µM unless noted
About 83,000 compounds went through this panel and 20% of them were active in at least one assay; those are over-represented in the sample as a whole. Activity calls are given as the source filed them. How the source made its calls: active means growth percent below 10; inactive means the rest.
Assign a class; possible classes are active, inactive

Illustrative cases are given below, each with its answer.
O=C(c1ccccc1)C(Br)C(Br)c1cccc([N+](=O)[O-])c1 (centres undefined) :: inactive
COc1ncnc2c1ncn2C/C(Br)=C(\Br)CCl :: active
Cc1nn(-c2ccccc2)c2nc3nc4c(c(N)c3c(-c3ccc(Cl)cc3)c12)CCC4 :: inactive

Field: next molecule
## Task // return assay outcome for C[C@@H](Oc1cc(-c2cnn(C3CC4(CNC4)C3)c2)cnc1N)c1c(Cl)ccc(F)c1Cl
## Result inactive

---

test system: SW-620 colon; experiment: NCI-60 one-dose screen, 48 h; details: 10 µM unless noted
Compounds without any hit were thinned out: in the full panel of roughly 83,000, 20% have a hit. The source made the active and inactive calls. The calls were made as follows: active = growth percent below 10; inactive = the rest.
Assign a class; possible classes are true = active, false = inactive

O=C(N/N=C/c1ccc2c(c1)OCO2)c1cnn2c1NC(c1ccccc1)C2 (stereo unspecified) :: false

## Task // return assay outcome for O=C1NC(=O)C2(CCCC2C(=O)O)N1 (stereo unspecified)
## Result false

## Task // return assay outcome for C=C[C@H]1C[C@@H]2C[C@@H]3[C@H]4C/C=C\C(=O)NCCCC5NC(=O)C(=C(O)/C=C/[C@@H]4CC(=O)[C@H]3[C@@H]2[C@H]1C)C5=O (stereo partly specified)
## Result true

---

test system: SNB-75 CNS; experiment: NCI-60 one-dose screen, 48 h (100 = growth as untreated, 0 = no growth, -100 = all killed); conditions: 10 µM unless noted
The panel holds about 83,000 compounds, 20% with a hit somewhere; the sample as a whole holds those more often.
Record form. Attribute: growth. Fill in for each entry.
Give bare numbers, in %.

Cc1ccc(C2SCC(=O)N2NC(=O)c2[nH]c3ccc(F)cc3c2-c2ccccc2)cc1 (stereo not drawn) :: 71.4
CS(=O)(=O)Nc1cccc(C(=O)NCc2ccc(N3CCOCC3)cc2)c1 :: 68.2

Next compound, growth to be filled in.
## Task Entry Oc1ccc(Cl)cc1CNc1nc2ccccc2[nH]1 has what growth?
## Result 70.5
